Can you tell me PBM binding z-score for the items I'm about to list?
- Tested on: RARb:RXRa (NR concentration 270 nM, RXRa partner concentration 90 nM)
- testSummary: PBM binding z-score (relative to random genomic background probes); higher = stronger binding; sequences stand for … in GC…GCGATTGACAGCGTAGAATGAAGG
Give bare numbers.

# count of solved cases: 2
- biopolymerSequence: "TAGCCTAGGTCATTCAGGGGCCAGTCTAGAAAGC"
  observed: 3.75
- biopolymerSequence: "CAAACTAGGTCACGAAAGTTCAAAGTCGAATGAC"
  observed: 5.27

// for each sequence below, give its PBM binding z-score
1. CCTCGGGGGACAGAAGGTCAGAGCTGTCCGCTTT
2. TCTCGGAGGACACGAAGGACAGAGCTTTCCAGAG

1: 3.34; 2: 1.54

List the reported PBM binding z-score of each sequence below.
1. TAGCCTAGGTCATTCAGGGGCCTGTATAGAAAGC
2. CGAAGGAGGGCATGAGTTGATAGCAAATGCCGAT

[3.52, 1.53]

Source: the supplement of paper PMC6555819
